Test system: UACC-62 melanoma
Method description: NCI tumour cell line growth inhibition, 48 h; in the data active = GI50 below about 0.43 µM; inactive = the rest
Labels: active, inactive

{"Molecule": "CC(C)=CC1=C2C3=C(C(=O)C4(O)Oc5c(C)c6c7c(c5OC24C)[C@@H](C)CC[C@@H]7[C@@H](C)C[C@H]6C=C(C)C)C(C)CCC3C(C)C1 (some centres undefined)", "Class label": "inactive"}
{"Molecule": "O=C(/C=C/c1ccc(C(F)(F)F)cc1)c1ccc(Nc2nc(NCCO)nc(Nc3ccc(Cl)cc3)n2)cc1", "Class label": "inactive"}
{"Molecule": "CN(C)c1ccc(/C=C/c2cc[n+](C)c(/C=C/c3ccc(N(C)C)cc3)c2)cc1", "Class label": "active"}
{"Molecule": "O=C1c2ccccc2-c2c1c1ccccc1c(=O)n2CCCn1ccnc1", "Class label": "inactive"}

* * *

Tested on: HOP-92 NSCLC
Method description: NCI tumour cell line growth inhibition, 48 h

{"Compound": "CN1C(=O)C2C(C1=O)C1(O)c3ccccc3C2(N)c2ccccc21 (centres undefined)", "TGI": "> 100 µM"}
{"Compound": "CC(=O)OCc1cc2ccccc2nc1C(Br)(Br)Br", "TGI": "31.2 µM"}
{"Compound": "COc1ccccc1NC(=O)CC(=O)N/N=C/c1ccc(N(CCC#N)S(=O)(=O)c2ccccc2)cc1", "TGI": "> 100 µM"}
{"Compound": "O=[N+]([O-])c1cc(-c2nc(-c3ccccc3)c(-c3ccccc3)[nH]2)c(O)c([N+](=O)[O-])c1", "TGI": "36.9 µM"}

* * *

Tested on: OVCAR-5 ovarian
Method description: NCI tumour cell line growth inhibition, 48 h
Measurement label: GI50

{"Molecule": "Cn1cc(-c2ccc(-c3ccc(C4=NC5(CC5)C(=O)N4C[C@@H]4CCN(C(=O)C5CC5)C4)cc3)cc2)cn1", "System name": "OVCAR-5 ovarian", "Measurement label": "GI50", "Result": "38.6 µM"}
{"Molecule": "COC(=O)CC[C@H](Cc1ccccc1)NC(=O)c1csc([C@@H](C[C@H](C(C)C)N(C)C(=O)[C@@H](NC(=O)[C@H]2CCCCN2C)C(C)C)OC(C)=O)n1", "System name": "OVCAR-5 ovarian", "Measurement label": "GI50", "Result": "0.00816 µM"}
{"Molecule": "CN(C)c1ccc(/C=C/c2cc[n+](C)c(/C=C/c3ccc(N(C)C)cc3)c2)cc1", "System name": "OVCAR-5 ovarian", "Measurement label": "GI50", "Result": "0.401 µM"}
{"Molecule": "C=C1CC2(OC1=O)C(=O)Nc1ccccc12 (stereo not drawn)", "System name": "OVCAR-5 ovarian", "Measurement label": "GI50", "Result": "5.83 µM"}
{"Molecule": "NCCCNCCCCNC(=O)C(O)NC(=O)CCCCCCN=C(N)N (stereo not drawn)", "System name": "OVCAR-5 ovarian", "Measurement label": "GI50", "Result": "> 3010 µM"}
{"Molecule": "O=C(/C=C/c1ccc(C(F)(F)F)cc1)c1ccc(Nc2nc(NCCO)nc(Nc3ccc(Cl)cc3)n2)cc1", "System name": "OVCAR-5 ovarian", "Measurement label": "GI50", "Result": "5.93 µM"}
{"Molecule": "COC(C)(C)C/C=C/C(C)=C/C=C/C(C)=C\\C=C\\C(C)=C\\C=C\\C=C(C)\\C=C\\C=C(C)\\C=C\\C=C(C)\\C=C\\CC(C)(C)OC", "System name": "OVCAR-5 ovarian", "Measurement label": "GI50", "Result": "> 150 µg/mL"}
{"Molecule": "CCN(CC)c1ccc(C(=O)c2ccc(N(CC)CC)cc2)cc1", "System name": "OVCAR-5 ovarian", "Measurement label": "GI50", "Result": "4.1 µM"}
